From: patent US4081531A

Assay: Tolerability in mice, intravenous injection
Type: in vivo
Details: mouse, in vivo, mice 18 - 20 g, read-out: tolerated dose
observable: MTD
Returns: string containing the number followed by the unit.

Incoming: Any idea what its MTD is? The compound is `COC1=C(C)C(=O)c2cc(=O)n(C)cc2C1=O`
Outgoing: 50 mg/kg
